Reported recombinant barcode read abundance (log10) values follow for various sequences
- assay.remarks: recombinant barcode read abundance after kanamycin selection (control-corrected) (log10(CPM+1)); higher = more efficient recombination; sequences stand for … in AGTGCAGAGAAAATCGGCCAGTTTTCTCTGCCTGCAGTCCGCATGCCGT…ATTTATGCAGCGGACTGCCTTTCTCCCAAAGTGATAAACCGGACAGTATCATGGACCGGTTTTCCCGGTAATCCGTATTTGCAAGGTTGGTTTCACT; site = the 11-nt target
Respond numerically, and do not add a unit to the figure.

Recorded recombinant barcode read abundance (log10), per entry:
Quick check: recombinant barcode read abundance (log10) of AGGCGGGCTTGGGTTCTAACCTGTTGCGGTG [AGGCGGGCTCC_LTGcore_CT_RTGcore_CA] (site AGGCGGGCTCC) (LTG core: CT, RTG core: CA) ?
0.201

Quick check: recombinant barcode read abundance (log10) of ATGCTTTCTTGGGTTCTAACCTGTTGCCTCG [ATGCTTTCTAG_LTGcore_CT_RTGcore_CG] (site ATGCTTTCTAG) (LTG core: CT, RTG core: CG) ?
0.21

Consider now this further sequence.
Quick check: recombinant barcode read abundance (log10) of GCGGGACATTGGGTTCTAACCTGTTGCCTAG [GCGGGACCTAG_LTGcore_AT_RTGcore_CT] (site GCGGGACCTAG) (LTG core: AT, RTG core: CT) ?
0.17

---

- assay.remarks: recombinant barcode read abundance after kanamycin selection (control-corrected) (log10(CPM+1)); higher = more efficient recombination; sequences stand for … in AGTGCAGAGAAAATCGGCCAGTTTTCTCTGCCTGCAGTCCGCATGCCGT…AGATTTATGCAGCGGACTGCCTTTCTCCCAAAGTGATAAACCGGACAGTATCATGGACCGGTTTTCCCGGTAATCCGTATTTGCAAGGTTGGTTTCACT; site = the 11-nt target
Reported recombinant barcode read abundance (log10) values follow for various sequences
Respond numerically, and do not add a unit to the figure.

Recorded recombinant barcode read abundance (log10), per entry:
Quick check: recombinant barcode read abundance (log10) of ACCCTATCTTGGGTTCTAACCTGTTGCCT (site ACCCTATCTAG) ?
1.39

Quick check: recombinant barcode read abundance (log10) of ACGATACCTTGGGTTCTAACCTGTTGCCT (site ACGATACCTAG) ?
0.967

Quick check: recombinant barcode read abundance (log10) of CAATATCCTTGGGTTCTAACCTGTTGCCT (site CAATATCCTAG) ?
1.09

Quick check: recombinant barcode read abundance (log10) of CGCTGACCTTGGGTTCTAACCTGTTGCTT (site CGCTGTCCTAA) ?
0.231

Quick check: recombinant barcode read abundance (log10) of ACTAGAGCTTGGGTTCTAACCTGTTGCCT (site ACGAGAGCTAG) ?
0.197

Quick check: recombinant barcode read abundance (log10) of CTACACCCTTGGGTTCTAACCTGTTGCGA (site CTACACCCTTC) ?
2.39

More entries:
Quick check: recombinant barcode read abundance (log10) of GCCTCGCCTTGGGTTCTAACCTGTTGCAG (site GCCACGCCTCT) ?
0.341

Quick check: recombinant barcode read abundance (log10) of TTAACTACTTGGGTTCTAACCTGTTGCTT (site TTAACTACTAA) ?
0.0821

Quick check: recombinant barcode read abundance (log10) of CAGACTTCTTGGGTTCTAACCTGTTGCCT (site CTGACTTCTAG) ?
0.0642

Quick check: recombinant barcode read abundance (log10) of CTAGTAGCTTGGGTTCTAACCTGTTGCCG (site CTAGTAGCTCG) ?
1.84

---

- assay.remarks: recombinant barcode read abundance after kanamycin selection (control-corrected) (log10(CPM+1)); higher = more efficient recombination; sequences stand for … in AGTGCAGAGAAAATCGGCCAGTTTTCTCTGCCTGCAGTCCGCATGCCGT…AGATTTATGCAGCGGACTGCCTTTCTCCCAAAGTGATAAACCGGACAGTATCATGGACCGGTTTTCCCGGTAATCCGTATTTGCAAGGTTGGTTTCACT; site = the 11-nt target
measured.attribute: recombinant barcode read abundance (log10)
Respond numerically, and do not add a unit to the figure.

Recorded recombinant barcode read abundance (log10), per entry:
Quick check: recombinant barcode read abundance (log10) of CAGGCCACTTGGGTTCTAACCTGTTGCCT (site CTGGCCACTAG) ?
0.357

Quick check: recombinant barcode read abundance (log10) of GGTACGCCTTGGGTTCTAACCTGTTGCGT (site GGTACTCCTAC) ?
0.213

Quick check: recombinant barcode read abundance (log10) of GCACCACCTTGGGTTCTAACCTGTTGCCT (site GCACAACCTAG) ?
0.0145

Quick check: recombinant barcode read abundance (log10) of CATCGATCTTGGGTTCTAACCTGTTGCGT (site CTTTGATCTAC) ?
0.0816

Quick check: recombinant barcode read abundance (log10) of GAAATGTCTTGGGTTCTAACCTGTTGCCT (site GCAATGTCTAG) ?
0.0338

Quick check: recombinant barcode read abundance (log10) of CCACTTCCTTGGGTTCTAACCTGTTGCCT (site CCACTGCCTAG) ?
0.0522

Quick check: recombinant barcode read abundance (log10) of GACATTCCTTGGGTTCTAACCTGTTGCCT (site TACATTCCTAG) ?
0.0381

Quick check: recombinant barcode read abundance (log10) of TCACGTCCTTGGGTTCTAACCTGTTGCAG (site TCACGTCCTCT) ?
0.829

More entries:
Quick check: recombinant barcode read abundance (log10) of TGCGGGTCTTGGGTTCTAACCTGTTGCCT (site TGCGGGTCTAG) ?
0.702

Quick check: recombinant barcode read abundance (log10) of CAGAGGCCTTGGGTTCTAACCTGTTGCCT (site CAGTGGCCTAG) ?
0

---

- assay.remarks: recombinant UMI read abundance after kanamycin selection (control-corrected) (log10(CPM+1)); higher = more efficient recombination; extreme values may be limits of the assay; sequences stand for … in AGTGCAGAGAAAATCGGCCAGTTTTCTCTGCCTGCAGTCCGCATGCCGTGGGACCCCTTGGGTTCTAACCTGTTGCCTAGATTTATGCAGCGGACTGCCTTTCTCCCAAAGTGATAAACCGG…AGGTTGGTTTCACT; site = the 11-nt donor
measured.attribute: recombinant UMI read abundance (log10)
Respond numerically, and do not add a unit to the figure.

Quick check: recombinant UMI read abundance (log10) of CCTACAACATGGACCGGTTTTCCCGGTAATCCGTATTTGAA (site CCTACAACTTT) ?
0.0165

Quick check: recombinant UMI read abundance (log10) of CAGCCGACATGGACCGGTTTTCCCGGTAATCCGTATTTGGG (site CAGGCGACTCC) ?
0.0119

Quick check: recombinant UMI read abundance (log10) of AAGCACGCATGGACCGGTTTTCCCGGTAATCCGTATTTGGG (site AAGCACGCTCC) ?
0.133

Quick check: recombinant UMI read abundance (log10) of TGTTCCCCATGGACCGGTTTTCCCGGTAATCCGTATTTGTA (site TGTTCGCCTTA) ?
0.0106

Consider now this further sequence.
Quick check: recombinant UMI read abundance (log10) of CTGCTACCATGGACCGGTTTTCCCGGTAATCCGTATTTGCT (site CTGCTACCTAG) ?
0

---

- assay.remarks: recombinant barcode read abundance after kanamycin selection (control-corrected) (log10(CPM+1)); higher = more efficient recombination; sequences stand for … in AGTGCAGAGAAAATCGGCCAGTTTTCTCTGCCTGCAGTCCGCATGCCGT…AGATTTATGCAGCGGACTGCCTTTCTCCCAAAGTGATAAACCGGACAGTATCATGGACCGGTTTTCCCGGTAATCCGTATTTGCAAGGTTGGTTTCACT; site = the 11-nt target
Category scheme (recombinant barcode read abundance (log10)): bottom (below 0.1), middle (0.1 to below 1), top (1 or more)

Below are worked cases with known answers.
Sort TAGTTTACTTGGGTTCTAACCTGTTGCTA (site GGTCAGTCTCC) into one of the categories.
bottom

Sort TAGTTAGCTTGGGTTCTAACCTGTTGCCT (site TAGTTAGCTAG) into one of the categories.
middle

Sort GGGGCATCTTGGGTTCTAACCTGTTGCTT (site GGGGCATCTAA) into one of the categories.
middle

Sort CAACACTCTTGGGTTCTAACCTGTTGCCT (site CCACACTCTAG) into one of the categories.
middle

Sort AACTCTCCTTGGGTTCTAACCTGTTGCAT (site AACTCTCCTAT) into one of the categories.
middle

Sort CTTCACCCTTGGGTTCTAACCTGTTGCCT (site CTTCAACCTAG) into one of the categories.
middle

Sort GCTTCACCTTGGGTTCTAACCTGTTGCCT (site GCTTCACCTAG) into one of the categories.
middle

Sort TAGTCGTCTTGGGTTCTAACCTGTTGCCT (site TAGTCGTCTAA) into one of the categories.
middle

More entries:
Sort TAGCACCCTTGGGTTCTAACCTGTTGCCT (site TAGCACCCTCG) into one of the categories.
bottom

Sort TTCTTTCCTTGGGTTCTAACCTGTTGCCT (site TTCTCTCCTAG) into one of the categories.
bottom

Sort GAATCCTCTTGGGTTCTAACCTGTTGCCT (site GAATCCTCTAG) into one of the categories.
top

Sort TAGAAGGCTTGGGTTCTAACCTGTTGCTA (site TAGAAGGCTTA) into one of the categories.
top

Sort CCGAGAGCTTGGGTTCTAACCTGTTGCCT (site CAGAGAGCTAG) into one of the categories.
bottom

Sort GTGATAGCTTGGGTTCTAACCTGTTGCGG (site GTGATAGCTCC) into one of the categories.
top

Sort ACATGAACTTGGGTTCTAACCTGTTGCCT (site ACATGAACTAG) into one of the categories.
top

Sort GAGGACTCTTGGGTTCTAACCTGTTGCCC (site GAGGACTCTTG) into one of the categories.
middle

Sort ATCTTAACTTGGGTTCTAACCTGTTGCCT (site ATCTTATCTAG) into one of the categories.
bottom

Sort TTATACACTTGGGTTCTAACCTGTTGCTC (site GATAGGGCTAG) into one of the categories.
bottom

Sort CCTTGTACTTGGGTTCTAACCTGTTGCCT (site CTTTGTACTAG) into one of the categories.
bottom

Sort AGGGCGCCTTGGGTTCTAACCTGTTGCCT (site ACGGCGCCTAG) into one of the categories.
middle

Sort TAGAGCACTTGGGTTCTAACCTGTTGCCT (site GAGAGCACTAG) into one of the categories.
bottom

Sort GATACAGCTTGGGTTCTAACCTGTTGCCT (site GACACAGCTAG) into one of the categories.
middle

Ref: the supplement of paper PMC11208160
